Where do the numbers come from? From the EternaBench riboswitch data.

# Tested on: MS2 coat protein
# assay-name: apparent Kd, MS2 coat protein; higher = weaker binding; RNA-MaP array; FMN 200 µM where present
# stated-conditions: ligand present: flavin mononucleotide; designed as: OFF switch for flavin mononucleotide
metric: apparent Kd (nM)
Note: unit nM is implicit; provide only the numeric part.

1. GAGCUAUGAGGAUAUGCAUAGAUACGGAUUCGUGUAGUACUACAUGAGGAUCACCCAUGUAGAAGGCGUGGCUG	20.5
2. GACUGCAUGUAAGGAUAUCGACUGGAUAACAGUCGAGAAGGUACAUGAGGAUCACCCAUGUAAUAAGAUCAAUAAUAAGCAGUC	31.3

(Q) Which apparent Kd reading was recorded for the sequence UAGAAGUCAGGAUAUCCAUGGCGGCACUUGCGUGGUGGCGUGGAGAAGGGACAUGAGGAUCACCCAUGUAAAGG ?
(A) 174

(Q) Given AGAUCCUGAGUCAGGAUAUAGAGACGGUAGUCGGGCUAGAAGGGACAUGAGGAUCACCCAUGUGGGUUCGGGCC , state its recorded apparent Kd.
(A) 19.3

(Q) Which apparent Kd is reported for this sequence? AUGGUUCGAUUAGGAUAUUAUAGAUUGAAUAGUAUGAUUUACAUGAGGAUCACCCAUGUUACAUAUAAGAAGGAAUCGAAUCAU
(A) 11.6

(Q) May I ask what apparent Kd has been recorded for GACAUCGCAGGAUAUUAUUGUUUGUACAUGAGGAUCACCCAUGUUAAUUGGGUUAGUGUUUAAGAAGGGCGGUGUC ?
(A) 901

(Q) What does the data say about its apparent Kd? Entry: UGUAUGGACAGAGGAUAUGCCGAUAGGAUCUACUAUCGAAGAAUCCUCACAUGAGGAUCACCCAUGUAGAAGGCUGUCCAUACU
(A) 150

(Q) What value of measured apparent Kd is listed for CGUUAAUCCUAGGAUAUGCUAGACGAAAGUCUAGCAGAAGGAGGAACAUGAGGAUCACCCAUGUGUCCUAAACG ?
(A) 26.7
